Kindly supply the reported solubility kinetic values for the records listed here.
CONDITION SUMMARY: buffer; pH 7.4; 200.0 µM

Query: Which solubility kinetic value belongs to Cc1nnc(SCC(=O)N(C)c2ccccc2)n1-n1cccc1 ?
Result: > 49.1 µg/mL

Query: Return reported solubility kinetic; argument: COc1ccc(CCC(=O)NCc2ccccc2OC)cc1
Result: > 44.9 µg/mL

Query: Any idea what solubility kinetic was measured for CC(=O)c1ccc(NC(=O)[C@@H]2CCCN2C(=O)OC(C)(C)C)cc1 ?
Result: > 49.9 µg/mL

Query: solubility kinetic; subject: S=C(NCCCN1CCOCC1)NC1CC1
Result: > 36.5 µg/mL

Query: Consider the compound shown here: CC(C(=O)c1ccccc1)[n+]1cccc(C(N)=O)c1.[Br-] (centres undefined) What is its recorded solubility kinetic?
Result: > 50.3 µg/mL

Query: Please give the measured solubility kinetic for this compound: CCOC(=O)CC1C(=O)NCCN1C(=O)c1ccc(C)cc1 (centres undefined)
Result: > 45.7 µg/mL

Query: GET /values?readout=solubility kinetic&item= CCOc1ccccc1C1NC(=O)CCC1[N+](=O)[O-] (centres undefined)
Result: > 39.6 µg/mL

Query: Returns the measured solubility kinetic for the input compound. Input: COC(=O)C1CCCN1S(=O)(=O)c1ccc([N+](=O)[O-])cc1 (centres undefined)
Result: > 47.1 µg/mL

Query: Find the recorded solubility kinetic belonging to CCOc1ccc(C(C)=O)cc1Cn1ccsc1=N.Cl and report it.
Result: > 46.9 µg/mL

Query: // solubility kinetic lookup, key: c1cc(CCCc2ccncc2)ccn1
Result: > 29.7 µg/mL

Query: Request the reported solubility kinetic associated with Cc1cccc(NC(=O)CCN2C(=O)c3ccccc3C2=O)c1
Result: > 46.3 µg/mL

Query: # input compound: CSCCC(NC(=O)c1ccccc1)C(=O)N1CCN(C(=O)c2ccccc2)CC1 (centres undefined) ; wanted: its solubility kinetic
Result: > 63.8 µg/mL

Query: State the recorded solubility kinetic for this entry: Cc1[nH]c2ccccc2c1C(=O)C(=O)NCCCn1ccnc1
Result: > 46.6 µg/mL

Query: So what's the measured solubility kinetic for this one? CC(C)c1ccc(NC(=O)NCc2cccnc2)cc1
Result: > 40.4 µg/mL

Query: Give the measured solubility kinetic of CCC(C)NC(=O)c1ccccc1SC (centres undefined) .
Result: > 33.5 µg/mL

Query: Please report the recorded solubility kinetic for Clc1ccc2nc(-c3ccc(Cl)nc3)[nH]c2c1 .
Result: 13.5 µg/mL

Query: Quick check: solubility kinetic of O=C(Nc1ccc(Cl)cc1)C1CCN(C(=O)c2cccs2)CC1 ?
Result: 12.9 µg/mL

Query: Give the measured solubility kinetic of O=C(Nc1sc2c(c1C(=O)O)CCCC2)c1ccccc1Cl .
Result: > 50.4 µg/mL

Query: What value of measured solubility kinetic is listed for Cc1ccc2nc(N3CCN(C)CC3)c(C=O)c(=O)n2c1 ?
Result: 41.3 µg/mL

Query: Which value of solubility kinetic has been reported for CNCCc1c[nH]c2ccc(O)cc12.O=C(O)C(=O)O in the records?
Result: > 42 µg/mL

Query: I would be grateful if you could share the reported solubility kinetic for CN(C)C(=O)CSc1nnc(Cc2ccc3c(c2)OCO3)o1 .
Result: > 48.2 µg/mL

Query: Returns the measured solubility kinetic for the input compound. Input: CCN1CCN(C2CC(=O)NC2=O)CC1 (centres undefined)
Result: > 31.7 µg/mL

Query: I have this compound here, COc1ccc(CN=C(N)N=C(N)N)cc1Cl.Cl , and I need its recorded solubility kinetic.
Result: > 43.8 µg/mL

Query: For the compound shown here, CCOC(=O)C1(Cc2ccccc2)CCCN(C(=O)C=C(C)C)C1 (centres undefined) , give the reported solubility kinetic.
Result: 46.8 µg/mL

Query: I'd like to know its solubility kinetic. The compound in question is COc1ccc2cc(C(=O)NCC3CCCO3)[nH]c2c1 (centres undefined)
Result: > 41.1 µg/mL

Query: Fill blank: measured solubility kinetic of the compound CCCCN(C(=O)c1c(-c2ccccc2)noc1C)c1c(N)n(CCC)c(=O)[nH]c1=O is ____.
Result: > 63.8 µg/mL

Query: Find the recorded solubility kinetic belonging to CCCCCC(=O)Nc1c2c(nc3ccccc13)CCC2 and report it.
Result: 18.7 µg/mL

Query: // lookup solubility kinetic for COCCCNC(=O)C1c2ccccc2Oc2ccccc21
Result: 15.2 µg/mL

Query: Given the entry Cc1ccc(-c2cc(-c3ccccc3)nc(N)c2C#N)o1 , report its measured solubility kinetic.
Result: < 0.2 µg/mL
